# System: Plasmodium falciparum strain Dd2
# assay.name: SYBR Green growth inhibition assay, P. falciparum Dd2
# Assay type: cell-based
# assay.conditions: Plasmodium falciparum, DD2, 48 h, read-out: IC50 Dd2, 48 h

# structure.smiles, IC50
records = [
    ("Cl.N=C(N/N=C/c1ccc(OC(F)(F)F)cc1)N/N=C/c1ccc(OC(F)(F)F)cc1", "410 nM"),
    ("Cl.N#Cc1cccc(/C=N/NC(=N)N/N=C/c2cccc(C#N)c2)c1", "31 nM"),
]

The reported measurements were obtained from paper PMC8273112.
